- STUDY SYSTEM: M1 muscarinic receptors expressed in CHO cells (Homo sapiens)
- Construct: expressed in transfected cells; host or cells: CHO (CHO-hM1, stably transfected)
- ASSAY METHOD TEXT: [3H]-arachidonic acid release screen with and without ACh and modulator
- Assay type: cell-based
- PARTICULARS: [3H]AA release, modulator 10 μM
PARAMETER: Modulation of ACh activity (in words)

compound="CCCCc1oc2ccccc2c1C(=O)c1ccc(O)cc1 [Compound 4, reference compound]" study_system="M1 muscarinic receptors expressed in CHO cells (Homo sapiens)" parameter="Modulation of ACh activity (in words)" measured_value="completely inactive"
compound="CCCCc1oc2ccccc2c1C(=O)c1cc(I)c(O)c(I)c1 [Compound 3, reference compound]" study_system="M1 muscarinic receptors expressed in CHO cells (Homo sapiens)" parameter="Modulation of ACh activity (in words)" measured_value="completely inactive"

###

- STUDY SYSTEM: M1 muscarinic receptors expressed in CHO cells (Homo sapiens, UniProt P11229)
- Construct: expressed in transfected cells; host or cells: CHO (CHO-hM1, stably transfected)
- ASSAY METHOD TEXT: [3H]-arachidonic acid release screen with and without ACh and modulator
- Type: cell-based
- PARTICULARS: 10 μM modulator, 100 μM ACh; Table 1
PARAMETER: Ratio of response of ACh with modulator to response of ACh alone, 100 μM ACh

Example results:
compound="O=C1C(=O)N(Cc2ccc(O)cc2)c2ccccc21 [Compound 10, 1-(4-hydroxybenzyl)indoline-2,3-dione]" measured_value="0.92 ± 0.06"
compound="CCCCc1oc2ccccc2c1C(=O)c1cc(I)c(OCCN(CC)C(=O)c2ccccc2)c(I)c1 [Compound 5b]" measured_value="1.26 ± 0.05"
compound="COc1c(F)cc(CN2C(=O)C(=O)c3ccccc32)cc1F [Compound 8g]" measured_value="0.94 ± 0.02"
compound="COc1ccc(Cn2cc(C(=O)O)c(=O)c3ccccc32)cc1 [BQCA, reference compound]" measured_value="0.86 ± 0.03"
compound="COc1c(Br)cc(CN2C(=O)C(=O)c3ccccc32)cc1Br [Compound 8c]" measured_value="1.58 ± 0.01"

Give the measured Ratio of response of ACh with modulator to response of ACh alone, 100 μM ACh for COc1cc(CN2C(=O)C(=O)c3ccccc32)cc(OC)c1OC [Compound 8k]
0.83 ± 0.01

Give the measured Ratio of response of ACh with modulator to response of ACh alone, 100 μM ACh for O=C1C(=O)N(Cc2cc(F)c(F)c(F)c2)c2ccccc21 [Compound 8i]
1.05 ± 0.02

Give the measured Ratio of response of ACh with modulator to response of ACh alone, 100 μM ACh for CCCCc1oc2ccccc2c1C(=O)c1cc(I)c(O)c(I)c1 [Compound 3, reference compound]
0.81 ± 0.07

###

Here the recorded Stimulation of [3H]AA release, No ACh (fraction of stimulation above the control) is given for each entry.
- STUDY SYSTEM: M1 muscarinic receptors expressed in CHO cells (Homo sapiens, UniProt P11229)
- Construct: expressed in transfected cells; host or cells: CHO (CHO-hM1, stably transfected)
- ASSAY METHOD TEXT: [3H]-arachidonic acid release screen with and without ACh and modulator
- Assay type: cell-based
- PARTICULARS: 10 μM modulator, no ACh; Table 1
The answer should be written as a number, with no unit following it.

compound="CCCCc1oc2ccccc2c1C(=O)c1ccc(O)cc1 [Compound 4, reference compound]" measured_value=0.03
compound="COc1c(I)cc(CN2C(=O)C(=O)c3ccccc32)cc1I [Compound 8a]" measured_value=0.24
compound="COc1cc(CN2C(=O)C(=O)c3ccccc32)cc(OC)c1OC [Compound 8k]" measured_value=0.03

Could you now consider this next compound?
Give the measured Stimulation of [3H]AA release, No ACh (fraction of stimulation above the control) for CCCCc1oc2ccccc2c1C(=O)c1cc(I)c(OCCNCC)c(I)c1.Cl [Compound 1]
0.22

###

- STUDY SYSTEM: M1 muscarinic receptors expressed in CHO cells (Homo sapiens)
- Construct: expressed in transfected cells; host or cells: CHO (CHO-hM1, stably transfected)
- Sequence (P11229 1-460): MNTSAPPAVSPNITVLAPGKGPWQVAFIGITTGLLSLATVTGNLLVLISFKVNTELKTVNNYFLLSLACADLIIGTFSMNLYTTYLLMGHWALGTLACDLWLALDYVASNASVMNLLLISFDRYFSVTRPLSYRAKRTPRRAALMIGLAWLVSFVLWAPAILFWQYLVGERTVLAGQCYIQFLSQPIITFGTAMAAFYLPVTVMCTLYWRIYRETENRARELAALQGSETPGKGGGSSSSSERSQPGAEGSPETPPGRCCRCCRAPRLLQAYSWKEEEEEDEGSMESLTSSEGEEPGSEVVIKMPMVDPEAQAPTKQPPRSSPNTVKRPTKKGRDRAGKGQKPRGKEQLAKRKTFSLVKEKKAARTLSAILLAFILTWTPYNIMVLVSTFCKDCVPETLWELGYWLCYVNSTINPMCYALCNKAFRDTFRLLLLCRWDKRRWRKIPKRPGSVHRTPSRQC
- ASSAY METHOD TEXT: [3H]-arachidonic acid release screen with and without ACh and modulator
- Type: cell-based
- PARTICULARS: 10 μM modulator, 100 μM ACh; Table 1
PARAMETER: Ratio of response of ACh with modulator to response of ACh alone, 100 μM ACh
The answer should be written as a number, with no unit following it.

Example results:
compound=COc1cccc(CN2C(=O)C(=O)c3ccccc32)c1 measured_value=0.96
compound=CCCCc1oc2ccccc2c1C(=O)c1cc(I)c(OCCNCC)c(I)c1.Cl measured_value=0.67
compound=CCCCc1oc2ccccc2c1C(=O)c1cc(I)c(OCCN(CC)C(C)=O)c(I)c1 measured_value=1.58

Give the measured Ratio of response of ACh with modulator to response of ACh alone, 100 μM ACh for CCCCc1oc2ccc(NS(C)(=O)=O)cc2c1C(=O)c1ccc(OCCCN(CCCC)CCCC)cc1 [Dronedarone, reference compound]
0.75

###

Here the recorded Maximum Tolerated Concentration is given for each entry.
- Test system: wild-type zebrafish larvae
- ASSAY METHOD TEXT: Maximum tolerated concentration (MTC) determination in zebrafish larvae
- Format: in vivo, Danio rerio
- PARTICULARS: after 24-hour exposure; Table 3
Structures can show the parent of a compound that is named as a salt.
// note: answer is a bare numeric in µM

Example results:
compound=CCCCc1oc2ccccc2c1C(=O)c1cc(I)c(OCCN(CC)C(C)=O)c(I)c1 measured_value=10
compound=O=C1C(=O)N(Cc2cc(F)c(F)c(F)c2)c2ccccc21 measured_value=10
compound="CCN(CC)CCOc1c(Br)cc(CN2C(=O)C(=O)c3ccccc32)cc1Br [Compound 8l, hydrochloride]" measured_value=10
compound=CCN(CC)CCOc1ccc(CN2C(=O)C(=O)c3ccccc32)cc1 measured_value=10
compound="CCCCc1oc2ccc(NS(C)(=O)=O)cc2c1C(=O)c1ccc(OCCCN(CCCC)CCCC)cc1 [Dronedarone, reference compound]" measured_value=10
compound="CCCCc1oc2ccccc2c1C(=O)c1cc(I)c(OCCN(CC)CC)c(I)c1 [Amiodarone, reference compound]" measured_value=10
compound=COc1ccc(CN2C(=O)C(=O)c3ccccc32)cc1Cl measured_value=10
compound=CCCCc1oc2ccccc2c1C(=O)c1cc(I)c(OCCN(CC)C(=O)c2ccccc2)c(I)c1 measured_value=10

Give the measured Maximum Tolerated Concentration for `COc1ccc(CN2C(=O)C(=O)c3ccccc32)cc1I`
10

Give the measured Maximum Tolerated Concentration for O=C1C(=O)N(Cc2ccc(O)cc2)c2ccccc21 [Compound 10, 1-(4-hydroxybenzyl)indoline-2,3-dione]
10

###

- STUDY SYSTEM: M1 muscarinic receptors expressed in CHO cells (Homo sapiens, UniProt P11229)
- Construct: expressed in transfected cells; host or cells: CHO (CHO-hM1, stably transfected)
- ASSAY METHOD TEXT: [3H]-arachidonic acid release screen with and without ACh and modulator
- Type: cell-based
- PARTICULARS: 10 μM modulator, 0.1 μM ACh; Table 1
- Description: CHO cells expressing human M1 muscarinic receptors were cultured at 37° C. in a 5% CO2 atmosphere in F12 medium supplemented with 5% fetal bovine serum, 100 units/mL penicillin, and 100 μg/mL streptomycin. Measurement of [^3H]AA release was performed. […] [^3H]AA release was measured in Eagle's basal medium with 20 mM HEPES and 2 mg/ml fatty acid-free bovine serum albumin (EM-BSA). […]
Counter-ions that a name gives are not always drawn.
Here the recorded Ratio of response of ACh with modulator to response of ACh alone, 0.1 μM ACh is given for each entry.
The answer should be written as a number, with no unit following it.

Example results:
compound="COc1ccc(Cn2cc(C(=O)O)c(=O)c3ccccc32)cc1 [BQCA, reference compound]" measured_value=2.34
compound=O=C1C(=O)N(Cc2cc(F)c(F)c(F)c2)c2ccccc21 measured_value=1.39
compound=COc1c(Cl)cc(CN2C(=O)C(=O)c3ccccc32)cc1Cl measured_value=2.13
compound=COc1ccc(CN2C(=O)C(=O)c3ccccc32)cc1I measured_value=1.81
compound=COc1ccc(CN2C(=O)C(=O)c3ccccc32)cc1Br measured_value=1.31
compound=CCCCc1oc2ccccc2c1C(=O)c1ccc(OCCN(CC)CC)cc1 measured_value=0.46

Give the measured Ratio of response of ACh with modulator to response of ACh alone, 0.1 μM ACh for CCN(CC)CCOc1c(Br)cc(CN2C(=O)C(=O)c3ccccc32)cc1Br [Compound 8l, hydrochloride]
0.19

Give the measured Ratio of response of ACh with modulator to response of ACh alone, 0.1 μM ACh for `CCCCc1oc2ccccc2c1C(=O)c1cc(I)c(OCCN(CC)C(=O)c2ccccc2)c(I)c1`
1.34

Give the measured Ratio of response of ACh with modulator to response of ACh alone, 0.1 μM ACh for `CCCCc1oc2ccccc2c1C(=O)c1cc(I)c(OC)c(I)c1`
1.6

Give the measured Ratio of response of ACh with modulator to response of ACh alone, 0.1 μM ACh for O=C1C(=O)N(Cc2ccc(O)cc2)c2ccccc21 [Compound 10, 1-(4-hydroxybenzyl)indoline-2,3-dione]
1.60

Give the measured Ratio of response of ACh with modulator to response of ACh alone, 0.1 μM ACh for `COc1c(Br)cc(CN2C(=O)C(=O)c3ccccc32)cc1Br`
2.15

Give the measured Ratio of response of ACh with modulator to response of ACh alone, 0.1 μM ACh for `CCCCc1oc2ccccc2c1C(=O)c1cc(I)c(OCCN(CC)C(C)=O)c(I)c1`
2.22

Give the measured Ratio of response of ACh with modulator to response of ACh alone, 0.1 μM ACh for `COc1c(I)cc(CN2C(=O)C(=O)c3ccccc32)cc1I`
2.64

Give the measured Ratio of response of ACh with modulator to response of ACh alone, 0.1 μM ACh for `CCCCc1oc2ccccc2c1C(=O)c1ccc(OC)cc1`
1.18

Give the measured Ratio of response of ACh with modulator to response of ACh alone, 0.1 μM ACh for CCCCc1oc2ccccc2c1C(=O)c1cc(I)c(O)c(I)c1 [Compound 3, reference compound]
0.42
